List of pIC50 tested on JAK2 (Homo sapiens, UniProt O60674).
Sequence (O60674 849-1124 limits assumed): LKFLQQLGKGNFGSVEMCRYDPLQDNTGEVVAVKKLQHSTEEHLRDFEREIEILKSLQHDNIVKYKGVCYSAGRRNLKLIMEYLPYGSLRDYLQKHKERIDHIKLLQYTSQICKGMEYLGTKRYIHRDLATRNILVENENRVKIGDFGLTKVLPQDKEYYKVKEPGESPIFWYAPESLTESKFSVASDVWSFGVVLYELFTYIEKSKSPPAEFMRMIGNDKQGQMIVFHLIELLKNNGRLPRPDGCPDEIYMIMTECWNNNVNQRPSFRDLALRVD
pIC50: −log10 of the molar value.

Reference set, count: 5
Molecule	pIC50
[2H]C([2H])([2H])O[C@@H](c1ccc2c(c(Nc3cc(NC(=O)C4CC4)ncc3C(=O)OC)nn2C)c1OC)C(F)(F)F [Example 50B]	< 5.30
[2H]C([2H])([2H])NC(=O)c1cnc(NC(=O)C2CC2)cc1Nc1cnn2ccc([C@H](OC)C(F)(F)F)c(OC)c12	< 4.70
[2H]C([2H])([2H])NC(=O)c1cnc(NC(=O)C2CC2)cc1Nc1cnn2ccc([C@H](O)C(F)(F)F)c(OC)c12	< 4.70
[2H]C([2H])([2H])NC(=O)c1nnc(NC(=O)C2CC2)cc1Nc1cnn2ccc([C@H](O)C(F)(F)F)c(OC)c12	< 4.70
COC(=O)c1cnc(NC(=O)C2CC2)cc1Nc1nn(C)c2ccc([C@H](O)C(F)(F)F)c(OC)c12 [Example 48A]	< 5.30

Lab note: need pIC50 for [2H]C([2H])([2H])NC(=O)c1cnc(NC(=O)C2CC2)cc1Nc1nn(C)c2ccc([C@H](OC([2H])([2H])[2H])C(F)(F)F)c(OC)c12 [Example 55A] on JAK2 (Homo sapiens, UniProt O60674), anyone have it?
< 5.00

* * *

- Assay info: Brain pharmacokinetic studies in rats
- Type: in vivo, Sprague-Dawley rats
- Measurement parameters: Sprague-Dawley, rat; systemic (plasma), rats, iv, 2 mg/kg, solution; read-out: AUC
Reported endpoint: AUC (ng·h/mL)
Entry rule: numbers only, all in ng·h/mL.

Would you kindly share the measured AUC for [2H]C([2H])([2H])CC(=O)c1cnc(NC(=O)C2CC2)cc1Nc1nn(C)c2ccc([C@H](O)C(F)(F)F)c(OC)c12 [Example 54A] ?
1060

* * *

- Assay info: Kinetic solubility
- Format: physicochemical
- Measurement parameters: aqueous buffer, kinetic from dmso stock, 100 mM pH 7.4 phosphate buffer, 1% DMSO, room temperature, read-out: Kinetics Solubility_PBS7.4
Reported endpoint: solubility kinetic at 2 h
Don't forget the unit after the value.

Bench note: what solubility kinetic at 2 h did COC(=O)c1cnc(NC(=O)[C@@H]2C[C@@H]2F)cc1Nc1nn(C)c2ccc(C(O)C(F)(F)F)c(OC)c12 (single isomer, unassigned) [Example 122A] show?
10.3 µM

* * *

- Assay info: Pharmacokinetic study in rats
- Assay type: in vivo
- Measurement parameters: rat, plasma; Sprague-Dawley rats, intravenous, 2 mg/kg, solution
Reported endpoint: half-life (h)
Number only, in h; omit the unit.

Record request: half-life value, item [2H]C([2H])([2H])NC(=O)c1cnc(NC(=O)C2CC2)cc1Nc1nn(C)c2ccc([C@H](O)C(F)(F)F)c(OC)c12 [Example 49A]
1.04

* * *

- Test system: TYK2-JH2 domain (Homo sapiens)
- Construct: JAK1-JH2 domain or TYK2-JH2 domain enzyme in assay buffer
- Sequence (P29597 589-875 limits assumed): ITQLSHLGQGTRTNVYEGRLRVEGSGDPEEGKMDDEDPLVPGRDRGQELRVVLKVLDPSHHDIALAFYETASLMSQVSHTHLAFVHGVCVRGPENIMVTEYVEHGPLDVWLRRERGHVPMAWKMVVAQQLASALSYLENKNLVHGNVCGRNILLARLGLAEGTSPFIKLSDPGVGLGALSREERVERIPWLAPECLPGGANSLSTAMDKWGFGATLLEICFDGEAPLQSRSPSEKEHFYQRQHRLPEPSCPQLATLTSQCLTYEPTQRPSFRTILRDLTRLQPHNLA
- Assay info: Binding activity test for JH2 domain of TYK2 (Tb-antibody/tracer FRET)
- Measurement parameters: ratio of JAK1 JH2 to TYK2 JH2 binding IC50
Each entry below carries its recorded JAK1/TYK2 selectivity.

Below are worked cases with known answers.
Compound	JAK1/TYK2 selectivity
CCC(F)(F)c1cnc(NC(=O)C2CC2)cc1Nc1cccc(-c2cnn(C)n2)c1OC	31.71
[2H]C([2H])([2H])NC(=O)c1cnc(NC(=O)C2CC2)cc1Nc1nn(C)c2ccc([C@H](O)C(F)(F)F)c(OC)c12 [Example 49A]	49.3
[2H]C([2H])([2H])NC(=O)c1cnc(NC(=O)C2CC2)cc1Nc1nn(C)c2ccc(C(O)C(F)(F)F)c(OC)c12 (stereo not shown)	30.13
COC(=O)c1cnc(NC(=O)C2CC2)cc1Nc1nn(C)c2ccc([C@H](OC)C(F)(F)F)c(OC)c12 [Example 45B]	197.30
[2H]C([2H])([2H])NC(=O)c1cnc(NC(=O)C2CC2)cc1Nc1nn(C)c2ccc([C@H](OC([2H])([2H])[2H])C(F)(F)F)c(OC)c12 [Example 55A]	48.9

Param readout = JAK1/TYK2 selectivity; param system = TYK2-JH2 domain (Homo sapiens); param query = COC(=O)c1nnc(NC(=O)C2CC2)cc1Nc1cccc(-c2ncn(C)n2)c1OC ; response: value
>1.51

API: value(readout=JAK1/TYK2 selectivity, system=TYK2-JH2 domain (Homo sapiens)) for record [2H]C([2H])([2H])NC(=O)c1cnc(NC(=O)C2CC2)cc1Nc1cn(C)c2ccc(CC)c(OC)c12
15.7
